Listing: binding signal of selected sequences
# TEST SYSTEM: HNF4alpha8 (COS-7 nuclear extract) (Homo sapiens, UniProt P41235-5 1-452)
# Sequence: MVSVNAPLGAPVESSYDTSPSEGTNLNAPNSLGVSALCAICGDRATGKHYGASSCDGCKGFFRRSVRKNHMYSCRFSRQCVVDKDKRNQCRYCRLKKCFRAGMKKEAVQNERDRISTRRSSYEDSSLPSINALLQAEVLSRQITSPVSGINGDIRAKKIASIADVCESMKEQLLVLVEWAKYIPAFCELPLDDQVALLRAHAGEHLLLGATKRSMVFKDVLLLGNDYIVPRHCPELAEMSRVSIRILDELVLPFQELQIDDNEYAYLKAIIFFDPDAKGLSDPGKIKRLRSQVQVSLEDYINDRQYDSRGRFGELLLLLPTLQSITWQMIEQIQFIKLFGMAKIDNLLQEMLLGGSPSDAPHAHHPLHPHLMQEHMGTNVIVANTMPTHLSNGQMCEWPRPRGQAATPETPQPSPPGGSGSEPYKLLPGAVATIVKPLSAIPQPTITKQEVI
# RUN DESCRIPTION: protein-binding microarray; COS-7 nuclear extract on double-stranded Agilent 4x180k PBM; binding buffer, salt, pH and temperature not given in the material; high values mean tight binding
# TEST CONDITIONS: chain copies: 2; label: 3' end of strand 1 on the slide; dsDNA, one strand shown
In all, about 18,000 sequences were measured (“log2 normalized intensity”: median about 0.36, highest 2% from about 7.3 on). What follows is part of a selection rich in the highest values, with near analogues and random picks from the rest.
EXPERIMENTAL READOUT: binding signal (log2 normalized intensity)

>>> numeric_value("CTGGACTTTCCTTTGTTGGGAGACTTTTTAGCCTAGGGAGATTAGAGTATCGGTCGA")
1.45
>>> numeric_value("TAGGGAAAATAGTGACCCTGTCTCTCAGTCGCCTAGGGAGATTAGAGTATCGGTCGA")
1.62
>>> numeric_value("CTCTGTATTGTAAAAGAAAGTGAGCAGGCAGCCTAGGGAGATTAGAGTATCGGTCGA")
-0.689
>>> numeric_value("CCCTTGGAATGTGACCTTAGACCCCTGAATGCCTAGGGAGATTAGAGTATCGGTCGA")
6.49
>>> numeric_value("GAGAGTTCCCTTGGAATGCCAGATGACCTTGCCTAGGGAGATTAGAGTATCGGTCGA")
4.6
>>> numeric_value("TTCCACTGACTTGCAACCTTTGCCCTGTTGGCCTAGGGAGATTAGAGTATCGGTCGA")
7.2
>>> numeric_value("TTGCACTGTGCTTTGTTTACTTAACCTTTGGCCTAGGGAGATTAGAGTATCGGTCGA")
4.5
>>> numeric_value("CTGTGCTTTGTTTACTTAACCTTTGATCATGCCTAGGGAGATTAGAGTATCGGTCGA")
7.84
>>> numeric_value("CTTCGCTGGAATGTCACAGGGATTACGATCGCCTAGGGAGATTAGAGTATCGGTCGA")
0.569
